pIC50: −log10 of the molar value.
System: Macrophage colony-stimulating factor 1 receptor (Homo sapiens, UniProt P07333) | Read-out: pIC50 | Origin: multiple publications
reported-property: pIC50

INSERT INTO measurements (compound, reported) VALUES
  ('Clc1cnc2[nH]cc(Cc3cnc(NC4CCCC4)nc3)c2c1', '> 6.00'),
  ('COc1ccc(Nc2ccc(C(=O)c3c[nH]c4ncnc(NC(C)C)c34)c(F)n2)cn1', '> 8.00'),
  ('Cn1cnnc1-c1cccc(Nc2c[nH]c3ncccc23)c1', '≥ 5.00'),
  ('CCCS(=O)(=O)Nc1ccc(F)c(C(=O)c2c[nH]c3ncc(-c4ccc(OC)nc4OC)cc23)c1F', '≥ 5.00'),
  ('CCCCS(=O)(=O)Nc1ccc(F)c(C(=O)c2c[nH]c3ncc(-c4ccc(Cl)cc4)cc23)c1F', '≥ 5.00'),
  ('Nc1ccc(F)c(C(=O)c2c[nH]c3ncc(-c4cccnc4)cc23)c1F', '≥ 5.00'),
  ('C[C@@H](Oc1cncc(Cl)n1)c1cccc(NC(=O)c2cccc(C(F)(F)F)c2)c1', '6.30 to 7.29'),
  ('CCCS(=O)(=O)Nc1ccc(F)c(C(=O)c2c[nH]c3ncc(N4CCN(C)CC4)cc23)c1F', '≥ 5.00'),
  ('Cc1ccccc1NC(=O)Nc1cccc(C(=O)c2c[nH]c3ncccc23)c1', '≥ 5.00'),
  ('O=C(c1c(F)ccc(NS(=O)(=O)N2CCCCC2)c1F)c1c[nH]c2ncccc12', '≥ 5.00'),
  ('CC(C)N1CCOc2c(F)cc(-c3nc(Nc4ccc(C5CCN(C(=O)CN(C)C)CC5)c(F)c4)ncc3F)cc21', 7.55),
  ('Cc1cnc2[nH]cc(C(=O)c3cc(NS(=O)(=O)C4CCCC4)ccc3F)c2c1', '≥ 5.00'),
  ('O=C(c1ccc(NC2CCC(F)(F)CC2)nc1)c1c[nH]c2ncnc(NCC(F)(F)F)c12', '> 7.00'),
  ('Cc1nc(-c2cnc(NC(C)C)n(C)c2=O)ccc1C(O)c1c[nH]c2ncc(Cl)cc12 (stereo not shown)', 6.50),
  ('O=C(Nc1ccc(F)c(Cc2c[nH]c3ncc(-c4cccnc4)cc23)c1F)OCc1ccccc1', '≥ 5.00'),
  ('O=C(c1cccc(OCc2ccc(Cl)cc2)c1OCCF)c1c[nH]c2ncccc12', '≥ 5.00');

----------
System: Macrophage colony-stimulating factor 1 receptor (Homo sapiens) | Read-out: pIC50 | Origin: multiple publications
pIC50: −log10 of the molar value.
reported-property: pIC50

INSERT INTO results (molecule, reported) VALUES
  ('O=C(Nc1cccnc1)Nc1cccc(C(=O)c2c[nH]c3ncc(Cl)cc23)c1', '≥ 5.00'),
  ('Cc1cc(C)cc(C(=O)Nc2ccc(Cl)c(C(=O)Nc3cnc(C(C)C)s3)c2)c1', 8.00),
  ('COc1cc2nccc(Oc3ccc(NC(=O)c4nn(C(C)C)cc(-c5ccc(F)cc5)c4=O)nc3)c2cc1OC', 7.42),
  ('COc1cccc(Cc2c[nH]c3ncccc23)c1', '≥ 5.00'),
  ('CC(=O)N1CCN(c2ccc(Nc3ncc(F)c(-c4cc(F)c5c(c4)N(C(C)C)CCO5)n3)nc2)CC1', 6.11),
  ('CS(=O)(=O)N1CCC(Nc2ncc3cc(C#N)c(=O)n(-c4c(F)cccc4F)c3n2)CC1', 6.40),
  ('O=C(CCCCC1SCC2NC(=O)NC21)NCCCCCNC(=O)CCc1cnc2[nH]cc(C(=O)c3c(F)ccc(NS(=O)(=O)c4ccc(C(F)(F)F)cc4)c3F)c2c1 (stereo not shown)', '≥ 5.00'),
  ('CNc1ncnc2[nH]cc(C(=O)c3ccc(Nc4ccc(C)nc4)nc3F)c12', '> 8.00'),
  ('CS(=O)(=O)c1cccc(-c2cnc3[nH]cc(Cc4c(F)ccc(NC(=O)NC5CCCC5)c4F)c3c2)c1', '≥ 5.00'),
  ('COc1ccc(F)c(C(=O)c2c[nH]c3ncc(-c4ccccc4)cc23)c1F', '≥ 5.00'),
  ('O=C(c1ccc(NCc2ccc(F)cc2)nc1)c1c[nH]c2ncccc12', '≥ 5.00'),
  ('COc1ccnc2[nH]cc(C(=O)c3c(F)ccc(NS(=O)(=O)c4cc(F)ccc4F)c3F)c12', '≥ 5.00'),
  ('COc1ccc(Nc2ccc(Cc3c[nH]c4ncnc(C)c34)c(F)n2)cn1', '> 7.00'),
  ('CC(C)N1CCOc2c(F)cc(-c3nc(Nc4cc5n(n4)CCN(C)C5)ncc3F)cc21', 7.17),
  ('O=C(c1c(F)ccc(NCc2ccccc2)c1F)c1c[nH]c2ncc(-c3cccnc3)cc12', '≥ 5.00'),
  ('CCc1nc(NC(=O)N2CCC(C)(C)C2=O)ccc1Oc1ccnc(-c2cnn(C)c2)c1', 6.64);

----------
System: UniProt P07333 | Read-out: IC50 | Origin: multiple publications
reported-property: IC50 (nM)

INSERT INTO results (molecule, target_desc, quantity_unit, relation_sign, reported) VALUES
  ('Fc1nc(NCc2ccnc(Cl)c2)ccc1Cc1c[nH]c2ncncc12', 'UniProt P07333', 'nM', '≤', 10000),
  ('Cn1cc(-c2cnc3[nH]cc(C(=O)c4cccc(NS(=O)(=O)c5cccc(Cl)c5)c4)c3c2)cn1', 'UniProt P07333', 'nM', '≤', 10000),
  ('CCC1(CC)CCN(C(=O)Nc2ccc(Oc3ccnc(-c4cnn(C)c4)c3)c(C)n2)C1=O', 'UniProt P07333', 'nM', '=', 51.7),
  ('c1cnc(OC2CCCC2)c(CNc2ncc(Cc3c[nH]c4ncncc34)cn2)c1', 'UniProt P07333', 'nM', '≤', 10000),
  ('Cc1ccc2c(Nc3ccc(Cl)cc3)nccc2c1NC(=O)c1csc2c(N)ncnc12', 'UniProt P07333', 'nM', '=', 1),
  ('N#Cc1cc2cnc(Nc3ccc4c(c3)CCNC4)nc2n(C2CCCC2O)c1=O (centres unmarked)', 'UniProt P07333', 'nM', '=', 18),
  ('CC(C)N1CCOc2c(F)cc(-c3nc(Nc4ccc(N5CCOCC5)cn4)ncc3F)cc21', 'UniProt P07333', 'nM', '=', 1120),
  ('Clc1cnc2[nH]cc(Cc3cnc(NC4CCCCC4)nc3)c2c1', 'UniProt P07333', 'nM', '<', 100);

----------
System: Macrophage colony-stimulating factor 1 receptor (Homo sapiens) | Read-out: pIC50 | Origin: multiple publications
pIC50: −log10 of the molar value.
reported-property: pIC50

INSERT INTO assay_data (molecule, target_desc, reported_property, relation_sign, reported) VALUES
  ('CCC(C)n1c(=O)c(C#N)cc2cnc(NC3CCN(S(C)(=O)=O)CC3)nc21 (centres unmarked)', 'Macrophage colony-stimulating factor 1 receptor (Homo sapiens)', 'pIC50', '=', 5.94),
  ('N#Cc1cc2cnc(Nc3cccc(S(=O)(=O)N4CCC(O)CC4)c3)nc2n(C2CCCC2)c1=O', 'Macrophage colony-stimulating factor 1 receptor (Homo sapiens)', 'pIC50', '=', 7.13),
  ('Oc1ccc(Nc2c[nH]c3ncccc23)c(F)c1', 'Macrophage colony-stimulating factor 1 receptor (Homo sapiens)', 'pIC50', '≥', 5.00),
  ('CCCS(=O)(=O)Nc1ccc(F)c(C(=O)c2c[nH]c3ncc(-c4ccc(S(=O)(=O)CC)cc4)cc23)c1F', 'Macrophage colony-stimulating factor 1 receptor (Homo sapiens)', 'pIC50', '≥', 5.00),
  ('Cc1cnc2[nH]cc(Cc3cnc(Nc4ccc(C(O)(C(F)(F)F)C(F)(F)F)cc4)nc3)c2c1', 'Macrophage colony-stimulating factor 1 receptor (Homo sapiens)', 'pIC50', '>', 6.00),
  ('Cc1nc(NC(=O)N2CCC(C)(C)C2=O)ccc1Oc1ccnc(-c2cn[nH]c2)c1', 'Macrophage colony-stimulating factor 1 receptor (Homo sapiens)', 'pIC50', '=', 7.10),
  ('CCCNc1ncnc2[nH]cc(C(=O)c3ccc(Nc4cncc(OC)c4)nc3F)c12', 'Macrophage colony-stimulating factor 1 receptor (Homo sapiens)', 'pIC50', '>', 7.00),
  ('CCCC1(CCC)CCN(C(=O)Nc2ccc(Oc3ccnc(-c4cnn(C)c4)c3)c(C)n2)C1=O', 'Macrophage colony-stimulating factor 1 receptor (Homo sapiens)', 'pIC50', '=', 7.01);

----------
System: Macrophage colony-stimulating factor 1 receptor (Homo sapiens, UniProt P07333) | Read-out: pIC50 | Origin: multiple publications
pIC50: −log10 of the molar value.
reported-property: pIC50

INSERT INTO measurements (record_smiles, target_desc, reported) VALUES
  ('CCCCNC(=O)Nc1ccc(F)c(C(=O)c2c[nH]c3ncc(Cl)cc23)c1F', 'Macrophage colony-stimulating factor 1 receptor (Homo sapiens, UniProt P07333)', '≥ 5.00'),
  ('CN1CCN(c2ccc(Nc3ncc4c(=O)c(C(N)=O)cn(-c5ccc6c(c5)CCC6)c4n3)cc2)CC1', 'Macrophage colony-stimulating factor 1 receptor (Homo sapiens, UniProt P07333)', 8.41),
  ('COc1ccc(S(=O)(=O)Nc2ccc(F)c(C(=O)c3c[nH]c4ncc(Cl)cc34)c2F)cc1F', 'Macrophage colony-stimulating factor 1 receptor (Homo sapiens, UniProt P07333)', '≥ 5.00'),
  ('N#Cc1cc2cnc(Nc3ccc(N4CCNCC4)c(C(F)(F)F)c3)nc2n(C2CCCC2)c1=O', 'Macrophage colony-stimulating factor 1 receptor (Homo sapiens, UniProt P07333)', 8.38),
  ('Fc1cc(Cc2c[nH]c3ncc(Cl)cc23)c(Cl)cc1OCc1nc2ccccc2[nH]1', 'Macrophage colony-stimulating factor 1 receptor (Homo sapiens, UniProt P07333)', '≥ 5.00'),
  ('COc1cc(Nc2c[nH]c3ncccc23)cc(OC)c1', 'Macrophage colony-stimulating factor 1 receptor (Homo sapiens, UniProt P07333)', '≥ 5.00'),
  ('CS(=O)(=O)Nc1cccc(-c2cnc3[nH]cc(C(=O)c4cc(OC(F)F)cc(OC(F)F)c4)c3c2)c1', 'Macrophage colony-stimulating factor 1 receptor (Homo sapiens, UniProt P07333)', '≥ 5.00'),
  ('Fc1nc(NCc2cccnc2OC2CCCCC2)ccc1Cc1c[nH]c2ncncc12', 'Macrophage colony-stimulating factor 1 receptor (Homo sapiens, UniProt P07333)', '≥ 5.00'),
  ('CCCCS(=O)(=O)Nc1ccc(F)c(C(=O)c2c[nH]c3ncc(-c4cnn(C)c4)cc23)c1', 'Macrophage colony-stimulating factor 1 receptor (Homo sapiens, UniProt P07333)', '≥ 5.00'),
  ('CS(=O)(=O)Nc1cccc(-c2cnc3[nH]ccc3c2)c1', 'Macrophage colony-stimulating factor 1 receptor (Homo sapiens, UniProt P07333)', '≥ 5.00'),
  ('CCN1CCN(Cc2ccc(Nc3ncc(F)c(-c4cc(F)c5c(c4)N(C(=O)C4CC4)CCO5)n3)nc2)CC1', 'Macrophage colony-stimulating factor 1 receptor (Homo sapiens, UniProt P07333)', '< 5.30'),
  ('COc1cccc(Cc2c[nH]c3ncc(-c4ccc(C(F)(F)F)cc4)cc23)c1F', 'Macrophage colony-stimulating factor 1 receptor (Homo sapiens, UniProt P07333)', '≥ 5.00'),
  ('COc1cc(Cc2c[nH]c3ncc(Cl)cc23)c(Cl)cc1OCc1nc2ccccc2[nH]1', 'Macrophage colony-stimulating factor 1 receptor (Homo sapiens, UniProt P07333)', '≥ 5.00'),
  ('CCOc1ccc(Nc2ccc(Cc3c[nH]c4ncnc(C)c34)c(F)n2)cn1', 'Macrophage colony-stimulating factor 1 receptor (Homo sapiens, UniProt P07333)', '> 8.00'),
  ('COc1ncnc2[nH]cc(Cc3ccc(NCc4ccccc4Cl)nc3F)c12', 'Macrophage colony-stimulating factor 1 receptor (Homo sapiens, UniProt P07333)', '≥ 5.00'),
  ('Cn1cc(-c2cc(Oc3ccc(NC(=O)C4(C(=O)Nc5ccc(Cl)cc5)CC4)c(F)c3)ccn2)cn1', 'Macrophage colony-stimulating factor 1 receptor (Homo sapiens, UniProt P07333)', '> 6.70'),
  ('CCCS(=O)(=O)Nc1cccc(C(=O)c2c[nH]c3ncc(Br)cc23)c1F', 'Macrophage colony-stimulating factor 1 receptor (Homo sapiens, UniProt P07333)', '≥ 5.00');
